# System: P. aeruginosa
# experiment: Time-kill assay of GN lysin activity
# Assay type: cell-based, Pseudomonas aeruginosa
# assay conditions: CAA/HuS; lysin 10 μg/mL; T = 0 7.8; buffer control 7.7
Exercise: for every item that follows, state its recorded Log10 CFU/mL T = l hr.
Answer with the number, then the unit.

molecule	obs value
GN10: Native lysin, GenBank YP_002600773.1, SEQ ID NO: 22 (protein, Pseudomonas phage phi2954) MSKQGGVKVAQAVAALSSPGLKIDGIVGKATRAAVSSMPSSQKAATDKILQSAGIGSLDSLLAEPAAATSDTFREVVLAVAREARKRGLNPAFYVAHIALETGWGRSVPKLPDGRSSYNYAGLKYAAVKTQVKGKTETNTLEYIKSLPKTVRDSFAVFASAGDFSRVYFWYLLDSPSAYRYPGLKNAKTAQEFGDILQKGGYATDPAYAAKVASIASTAVARYGSDVSSVA	7.4 Log10 CFU/mL

# input for lookup
Query string: # return recorded Log10 CFU/mL T = l hr for input GN9: Native lysin, GenBank ECJ78460.1, SEQ ID NO: 21 (protein, Marine metagenome) MKNFNEIIEHVLKHEGGYVNDPKDLGGETKYGITKRFYPDLDIKNLTIEQATEIYKKDYWDKNKVESLPQNLWHIYFDMCVNMGKRTAVKVLQRAAVNRGRDIEVDGGLGPATIGALKGVELDRVRAFRVKYYVDLITARPEQEKFYLGWFRRATEV
Result string: 6.8 Log10 CFU/mL

FYI, the data here is from patent US20220160843A1.
